# test system: Human factor Xa (Homo sapiens, UniProt P00742)
# Sequence (P00742 41-179 limits assumed): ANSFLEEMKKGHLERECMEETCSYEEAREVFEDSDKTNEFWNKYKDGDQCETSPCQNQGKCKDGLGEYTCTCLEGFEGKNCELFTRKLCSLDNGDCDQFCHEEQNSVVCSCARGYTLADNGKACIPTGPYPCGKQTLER
# Sequence (P00742 235-488 limits assumed): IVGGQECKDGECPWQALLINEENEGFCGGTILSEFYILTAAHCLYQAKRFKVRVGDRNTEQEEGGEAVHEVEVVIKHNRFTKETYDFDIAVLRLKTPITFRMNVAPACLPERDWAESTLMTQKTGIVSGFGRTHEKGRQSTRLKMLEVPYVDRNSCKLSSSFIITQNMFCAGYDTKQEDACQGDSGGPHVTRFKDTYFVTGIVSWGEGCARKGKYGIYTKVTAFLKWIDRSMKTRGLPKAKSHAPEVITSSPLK
# assay overview: Xa Assay
# Format: biochemical
# Design: purchased Enzyme Research Laboratories, South Bend Ind
# conditions: at 30 µM
measured endpoint: % Inhibition Factor Xa (30 µM) (%)

N=C(N)c1ccc(CNC(=O)Cn2c(-c3ccccc3)c(Cl)nc(NCC3CC3)c2=O)cc1 ... 0

(P) N=C(N)c1ccc(CNC(=O)Cn2c(-c3c(Cl)cccc3Cl)c(Cl)nc(NC3CCC3)c2=O)cc1
(Q) N=C(N)c1ccc(CNC(=O)Cn2c(-c3cccc(N)c3)c(Cl)nc(NCCCCN3CCCC3)c2=O)cc1
Would you kindly point out which of P and Q has the smaller % Inhibition Factor Xa (30 µM) figure? // respond with label for picked entry
P

###

# test system: Human factor Xa (Homo sapiens)
measured endpoint: IC50 (µM)

N=C(N)c1ccc(CNC(=O)Cn2c(-c3cc(N)cc(C(=O)O)c3)cnc(NC3CCC3)c2=O)cc1 ... 52.3

(A) N=C(N)c1ccc(CNC(=O)Cn2c(-c3cccc(C(=N)N)c3)c(Cl)nc(NC3CCC3)c2=O)cc1
(B) COC(=O)c1cccc(Sc2ccc(N)cc2-c2c(Cl)nc(NC(C)C)c(=O)n2CC(=O)NCc2ccc(C(=N)N)cc2)c1
Would you kindly point out which of A and B has the smaller IC50 figure? // respond with label for picked entry
A
(A: 6.5 µM, B: 35 µM)

###

# test system: Human factor Xa (Homo sapiens, UniProt P00742)
# assay overview: Xa Assay
# Format: biochemical
# Parameters: purchased Enzyme Research Laboratories, South Bend Ind
# conditions: inhibitor at 100 µM
measured endpoint: % Inhibition Factor Xa (100 µM) (%)

O=C(Cn1c(-c2ccc3c(c2)OCO3)c(Cl)nc(NCCc2cccnc2)c1=O)NCCc1ccncc1 [Example E-0045] ... 0

(A) O=C(Cn1c(-c2cccc(Cl)c2)c(Cl)nc(NCc2ccccc2)c1=O)NCCc1ccncc1 [Example E-0073]
(B) Cc1c(Cl)nc(NCc2ccccc2)c(=O)n1CC(=O)NCCc1ccncc1 [Example E-0001]
(C) O=C(Cn1c(-c2cccc(Cl)c2)c(Cl)nc(NCc2ccccc2)c1=O)NCCc1cccnc1 [Example E-0074]
(D) COc1ccc(-c2c(Cl)nc(NCCc3ccc(Cl)cc3)c(=O)n2CC(=O)NCCc2ccncc2)cc1 [Example E-0106]
Order the records by % Inhibition Factor Xa (100 µM), with each subsequent value no larger than the one before. Answer by listing the labels in the order asked for.
D, A, B, C

###

# test system: recombinant soluble tissue factor and recombinant human factor VIIa (TF-VIIa) (Homo sapiens, UniProt P08709)
# Construct: conversion of coagulation factor VII to VIIa by Xa; purchased American Diagnostica, Greenwich Conn; host or cells: VIIa purchased; soluble TF made in house in E. coli
# Sequence (P08709 61-212 limits assumed): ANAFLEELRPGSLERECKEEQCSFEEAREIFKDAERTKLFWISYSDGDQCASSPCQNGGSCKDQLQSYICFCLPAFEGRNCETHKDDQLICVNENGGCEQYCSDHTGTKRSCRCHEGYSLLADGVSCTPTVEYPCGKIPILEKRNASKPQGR
# Sequence (P08709 213-466 limits assumed): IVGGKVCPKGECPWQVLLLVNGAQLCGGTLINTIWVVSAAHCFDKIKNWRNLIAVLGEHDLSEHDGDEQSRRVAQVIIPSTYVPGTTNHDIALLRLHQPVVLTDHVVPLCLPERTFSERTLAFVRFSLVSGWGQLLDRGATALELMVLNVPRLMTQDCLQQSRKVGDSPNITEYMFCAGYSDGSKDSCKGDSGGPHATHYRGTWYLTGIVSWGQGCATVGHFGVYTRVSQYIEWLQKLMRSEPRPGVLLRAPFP
# Sequence (P13726 33-251 partner limits assumed): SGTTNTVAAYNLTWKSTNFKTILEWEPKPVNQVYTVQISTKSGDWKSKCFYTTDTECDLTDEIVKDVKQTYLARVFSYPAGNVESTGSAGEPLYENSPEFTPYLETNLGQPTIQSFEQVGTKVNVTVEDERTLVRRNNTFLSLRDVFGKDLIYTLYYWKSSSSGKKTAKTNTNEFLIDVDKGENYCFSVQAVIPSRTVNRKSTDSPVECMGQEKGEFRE
# assay overview: TF-VIIa Assay
# Format: biochemical
# conditions: inhibitor at 100 µM
measured endpoint: % Inhibition TF-VIIa (100 µM) (%)

O=C(Cn1c(-c2cccc(Cl)c2)c(Cl)nc(NCc2ccccc2)c1=O)NCCc1cccnc1 [Example E-0086] ... 0
O=C(Cn1c(-c2cccc(Cl)c2)c(Cl)nc(NCc2ccccc2)c1=O)NCCc1ccncc1 [Example E-0085] ... 0
O=C(Cn1c(-c2cccc(Cl)c2)c(Cl)nc(NCCc2ccccc2)c1=O)NCCc1ccncc1 [Example E-0088] ... 0
O=C(Cn1c(Cc2ccccc2)c(Cl)nc(NCCc2cccc(Cl)c2)c1=O)NCCc1ccncc1 [Example E-0059] ... 0
O=C(Cn1c(Cc2ccccc2)c(Cl)nc(NCc2ccncc2)c1=O)NCCc1ccncc1 [Example E-0064] ... 0
Cc1c(Cl)nc(NCCc2ccccc2)c(=O)n1CC(=O)NCCc1ccncc1 [Example E-0002] ... 0
O=C(Cn1c(Cc2ccccc2)c(Cl)nc(NCCN2CCOCC2)c1=O)NCCc1ccncc1 [Example E-0063] ... 0
O=C(Cn1c(-c2ccccc2)c(Cl)nc(NCCc2ccccc2)c1=O)NCCc1ccncc1 [Example E-0010] ... 0

###

# test system: Human factor Xa (Homo sapiens, UniProt P00742)
# assay overview: Xa Assay
# Type: biochemical
# Design: purchased Enzyme Research Laboratories, South Bend Ind
# conditions: at 30 µM inhibitor
measured endpoint: % Inhibition Factor Xa (30 µM) (%)

N=C(NCc1ccccc1)c1ccc(CNC(=O)Cn2c(-c3cccc(N)c3)c(Cl)nc(NC3CCC3)c2=O)cc1 ... 7
N=C(N)c1ccc(CNC(=O)Cn2c(-c3ccccc3)c(Cl)nc(NCc3cc(C(F)(F)F)cc(C(F)(F)F)c3)c2=O)cc1 ... 11
N=C(N)c1ccc(CNC(=O)Cn2c(-c3ccc4c(c3)OCO4)c(Cl)nc(NCCc3ccccc3)c2=O)cc1 ... 22
CN(C)CCNC(=N)c1ccc(CNC(=O)Cn2c(-c3cccc(N)c3)c(Cl)nc(NC3CCC3)c2=O)cc1 ... 2
CSCC(C(=O)NCc1ccc(C(=N)N)cc1)n1c(-c2ccccc2)c(Cl)nc(NC2CCC2)c1=O (stereo not drawn) ... 0

(P) COc1ccc(-c2c(Cl)nc(NCc3ccccc3)c(=O)n2CC(=O)NCc2ccc(C(=N)N)cc2)cc1
(Q) CCCCNc1nc(Cl)c(-c2ccccc2)n(CC(=O)NCc2ccc(C(=N)N)cc2)c1=O
Would you kindly point out which of P and Q has the smaller % Inhibition Factor Xa (30 µM) figure? // respond with label for picked entry
Q

(A) CCc1c(Cl)nc(NCCN2CCOCC2)c(=O)n1CC(=O)NCc1ccc(C(=N)N)cc1
(B) N=C(N)c1ccc(CNC(=O)Cn2c(-c3ccccc3)c(Cl)nc(NCCCN3CCCC3=O)c2=O)cc1
(C) N=C(N)c1ccc(CNC(=O)Cn2c(-c3ccccc3)c(Cl)nc(NCc3ccncc3)c2=O)cc1
(D) N=C(N)c1ccc(CNC(=O)Cn2c(-c3cccc(Cl)c3)c(Cl)nc(NCCc3ccccc3)c2=O)cc1
Order the records by % Inhibition Factor Xa (30 µM), with each subsequent value no larger than the one before. Answer by listing the labels in the order asked for.
D, C, B, A

(I) CC(C)Nc1nc(Cl)c(-c2cc(N)ccc2F)n(CC(=O)NCc2ccc(C(=N)N)cc2F)c1=O
(II) CCc1c(Cl)nc(NCCc2ccccc2)c(=O)n1CC(=O)NCc1ccc(C(=N)N)cc1
Between I and II , whose recorded % Inhibition Factor Xa (30 µM) is greater? // respond with label for picked entry
II
(II: 2%, I: 0%)

###

# test system: recombinant soluble tissue factor and recombinant human factor VIIa (TF-VIIa) (Homo sapiens)
# Construct: conversion of coagulation factor VII to VIIa by Xa; purchased American Diagnostica, Greenwich Conn; host or cells: VIIa purchased; soluble TF made in house in E. coli
# assay overview: TF-VIIa Assay
# Assay type: biochemical
# conditions: inhibitor at 100 µM
measured endpoint: % Inhibition TF-VIIa (100 µM) (%)

Field: example entries. Status: answers known.
O=C(Cn1c(-c2ccc(Cl)cc2)c(Cl)nc(NCCN2CCOCC2)c1=O)NCCc1ccncc1 [Example E-0023] ... 0
O=C(Cn1c(-c2ccc(Cl)cc2)c(Cl)nc(NCCc2ccncc2)c1=O)NCCc1ccncc1 [Example E-0030] ... 0
O=C(Cn1c(-c2cccc(Cl)c2)c(Cl)nc(NCCc2ccccc2)c1=O)NCCc1cccnc1 [Example E-0077] ... 0
O=C(Cn1c(-c2ccc(Cl)cc2)c(Cl)nc(NCCc2cccnc2)c1=O)NCCc1ccncc1 [Example E-0029] ... 0

(a) O=C(Cn1c(CCc2ccccc2)c(Cl)nc(NCCc2ccc(Cl)cc2)c1=O)NCCc1ccncc1 [Example E-0068]
(b) O=C(Cn1c(-c2cccc(Cl)c2)c(Cl)nc(NCCc2ccc(Cl)cc2)c1=O)NCCc1ccncc1 [Example E-0082]
(c) COc1ccc(-c2c(Cl)nc(NCCc3cccc(Cl)c3)c(=O)n2CC(=O)NCCc2ccncc2)cc1 [Example E-0103]
Order the records by % Inhibition TF-VIIa (100 µM), with each subsequent value no larger than the one before. Answer by listing the labels in the order asked for.
b, c, a

###

# test system: recombinant soluble tissue factor and recombinant human factor VIIa (TF-VIIa) (Homo sapiens)
# Construct: conversion of coagulation factor VII to VIIa by Xa; purchased American Diagnostica, Greenwich Conn; host or cells: VIIa purchased; soluble TF made in house in E. coli
# assay overview: TF-VIIa Assay
# Type: biochemical
# conditions: cell adds 'at 100 μM'
measured endpoint: IC50 (µM)
Record the value in µM, omitting the unit from your answer.

GET /values?readout=IC50&item= CC(CNc1nc(Cl)c(-c2cccc(N)c2)n(CC(=O)NCc2ccc(C(=N)N)cc2)c1=O)C(=O)O (stereo not shown)
0.058

###

# test system: recombinant soluble tissue factor and recombinant human factor VIIa (TF-VIIa) (Homo sapiens, UniProt P08709)
# Construct: conversion of coagulation factor VII to VIIa by Xa; purchased American Diagnostica, Greenwich Conn; host or cells: VIIa purchased; soluble TF made in house in E. coli
# assay overview: TF-VIIa Assay
# Assay type: biochemical
# conditions: inhibitor at 100 µM
measured endpoint: % Inhibition TF-VIIa (100 µM) (%)

Cc1c(Cl)nc(NCCc2ccc(Cl)cc2)c(=O)n1CC(=O)NCCc1ccncc1 [Example E-0004] ... 0
O=C(Cn1c(-c2cccc(Cl)c2)c(Cl)nc(NCCc2ccc(Cl)cc2)c1=O)NCCc1cccnc1 [Example E-0083] ... 2
O=C(Cn1c(CCc2ccccc2)c(Cl)nc(NCc2ccccc2)c1=O)NCCc1ccncc1 [Example E-0065] ... 0
COc1ccc(-c2c(Cl)nc(NCCN3CCOCC3)c(=O)n2CC(=O)NCCc2ccncc2)cc1 [Example E-0039] ... 0
O=C(Cn1c(-c2cccc(Cl)c2)c(Cl)nc(NCc2ccccc2)c1=O)NCCc1ccncc1 [Example E-0073] ... 0

(A) O=C(Cn1c(Cc2ccccc2)c(Cl)nc(NCCc2ccncc2)c1=O)NCCc1ccncc1 [Example E-0062]
(B) Cc1c(Cl)nc(NCCc2ccncc2)c(=O)n1CC(=O)NCCc1ccncc1 [Example E-0006]
Would you kindly point out which of A and B has the smaller % Inhibition TF-VIIa (100 µM) figure? // respond with label for picked entry
A
